Test: Pharmacokinetic experiment in mice (single PO or IV administration)
Settings: male, ICR, mouse, plasma, iv, 2 mg/kg
READOUT_KIND: AUC

Exam item: Give the reported value of AUC for this record: [2H]C([2H])([2H])OC[C@@]12CC[C@@H](CN(c3nc(OC[C@@]45CCCN4C/C(=C\F)C5)nc4c(F)c(-c5cc(O)cc6ccc(F)c(C#C)c56)ncc34)C1)N2 [Example 62]
Marked response: 0.849 µg·h/mL

Exam item: Give the reported value of AUC for this record: C#Cc1c(F)ccc2cc(O)cc(-c3ncc4c(N5C[C@H]6CC[C@@H](C5)N6)nc(OC[C@@]56CCCN5C/C(=C\F)C6)nc4c3F)c12 [Reference Compound 1, reference compound]
Marked response: 0.688 µg·h/mL

Exam item: Give the reported value of AUC for this record: [2H]C([2H])([2H])C([2H])([2H])[C@@]12CC[C@@H](CN(c3nc(OC[C@@]45CCCN4C/C(=C\F)C5)nc4c(F)c(-c5cc(N)cc6ccc(F)c(C#C)c56)ncc34)C1)N2 [Example 137]
Marked response: 0.775 µg·h/mL

Exam item: Give the reported value of AUC for this record: [2H]C([2H])([2H])C([2H])([2H])[C@@]12CC[C@@H](CN(c3nc(OC[C@@]45CCCN4C/C(=C\F)C5)nc4c(F)c(-c5cc(O)cc6ccc(F)c(C#C)c56)ncc34)C1)N2 [Example 71]
Marked response: 0.497 µg·h/mL

Exam item: Give the reported value of AUC for this record: C#Cc1c(F)ccc2cc(O)cc(-c3ncc4c(N5C[C@H]6CC[C@@H](C5)N6)nc(OC[C@@]56CCCN5C/C(=C/F)C6)nc4c3F)c12 [Reference Compound 2, reference compound]
Marked response: 0.718 µg·h/mL

* * *

Target: KRAS^G12D/cRAF (Homo sapiens, UniProt P01116, G12D)
Sequence (P01116 1-188 isoform P01116-2 G12D): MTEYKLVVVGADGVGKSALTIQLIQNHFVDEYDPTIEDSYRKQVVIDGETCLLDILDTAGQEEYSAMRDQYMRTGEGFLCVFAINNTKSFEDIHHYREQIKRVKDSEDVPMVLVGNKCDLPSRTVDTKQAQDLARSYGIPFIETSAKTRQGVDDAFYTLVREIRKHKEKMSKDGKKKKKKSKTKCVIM
Experiment: KRAS G12D/cRAF binding test (Alphalisa)
Details: His-tagged KRAS G12D with GMPPNP, GST-tagged cRAF
I'd be grateful if you could share measured log10 IC50 for these entries.
In our notation, the value equals log10 of IC50 in nM.

Exam item: Look up and report log10 IC50, with KRAS^G12D/cRAF (Homo sapiens, UniProt P01116, G12D) as system, for C#Cc1c(F)ccc2cc(O)cc(-c3ncc4c(N5C[C@@H]6CC[C@](C7CCCC7)(C5)N6)nc(OC[C@@]56CCCN5C/C(=C\F)C6)nc4c3F)c12
Marked response: 1.54

Exam item: Look up and report log10 IC50, with KRAS^G12D/cRAF (Homo sapiens, UniProt P01116, G12D) as system, for [2H]C([2H])([2H])C([2H])([2H])[C@@]12CC[C@@H](CN(c3nc(OC[C@@]45CCCN4C/C(=C\F)C5)nc4c(F)c(-c5ccc(F)c6sc(N)c(C#N)c56)c(Cl)cc34)C1)N2 (single isomer, unassigned) [Example 361]
Marked response: 0.85

Exam item: Look up and report log10 IC50, with KRAS^G12D/cRAF (Homo sapiens, UniProt P01116, G12D) as system, for [2H]C([2H])([2H])C([2H])([2H])[C@@]12CC[C@@H](CN(c3nc(OC[C@@]45CCCN4C/C(=C\F)C5)nc4c(F)c(-c5cc(O)cc6ccc(F)c(C#C)c56)ncc34)C1)N2
Marked response: 0.75

Exam item: Look up and report log10 IC50, with KRAS^G12D/cRAF (Homo sapiens, UniProt P01116, G12D) as system, for [2H]C([2H])([2H])OCC12CCC(CN(c3nc(OCC45CC(=C)CN4CC(=C)C5)nc4c(F)c(-c5cc(O)cc6ccc(F)c(C#C)c56)ncc34)C1)N2 (centres unmarked)
Marked response: 1.57

Exam item: Look up and report log10 IC50, with KRAS^G12D/cRAF (Homo sapiens, UniProt P01116, G12D) as system, for [2H]C([2H])([2H])OC[C@@]12CC[C@@H](CN(c3nc(OC[C@@]45CCCN4C/C(=C\F)C5)nc4c(F)c(-c5cc(O)cc6ccc(F)c(C#C)c56)ncc34)C1)N2 [Example 61]
Marked response: 0.40

Exam item: Look up and report log10 IC50, with KRAS^G12D/cRAF (Homo sapiens, UniProt P01116, G12D) as system, for [2H]C([2H])([2H])OC[C@@]12CC[C@@H](CN(c3nc(OC[C@@]45CCCN4C/C(=C\F)C5)nc4c(F)c(-c5cc(O)cc6ccc(F)c(C#C)c56)ncc34)C1)N2 [Example 62]
Marked response: 0.71

Exam item: Look up and report log10 IC50, with KRAS^G12D/cRAF (Homo sapiens, UniProt P01116, G12D) as system, for [2H]C([2H])([2H])C12CCC(CN(c3nc(OCC45CC(=C)CN4CC(=C)C5)nc4c(F)c(-c5cc(O)cc6ccc(F)c(C#C)c56)ncc34)C1)N2 (centres unmarked)
Marked response: 0.51

Exam item: Look up and report log10 IC50, with KRAS^G12D/cRAF (Homo sapiens, UniProt P01116, G12D) as system, for C#Cc1c(F)ccc2cc(O)cc(-c3ncc4c(N5C[C@@H]6CC[C@](CC)(C5)N6)nc(OCC56CC(=C)CN5CC(=C)C6)nc4c3F)c12
Marked response: 1.22

Exam item: Look up and report log10 IC50, with KRAS^G12D/cRAF (Homo sapiens, UniProt P01116, G12D) as system, for C#Cc1c(F)ccc2cc(O)cc(-c3ncc4c(N5C[C@@H]6CC[C@](COC)(C5)N6)nc(OC[C@@]56CCCN5C/C(=C/F)C6)nc4c3F)c12
Marked response: 0.91

Exam item: Look up and report log10 IC50, with KRAS^G12D/cRAF (Homo sapiens, UniProt P01116, G12D) as system, for C#Cc1c(F)ccc2cc(O)cc(-c3ncc4c(N5C[C@@H]6CC[C@](CC)(C5)N6)nc(OC[C@@]56CCCN5C/C(=C\F)C6)nc4c3F)c12
Marked response: 0.48

Exam item: Look up and report log10 IC50, with KRAS^G12D/cRAF (Homo sapiens, UniProt P01116, G12D) as system, for [2H]C([2H])([2H])C([2H])([2H])[C@@]12CC[C@@H](CN(c3nc(OC[C@@]45CCCN4C/C(=C\F)C5)nc4c(F)c(-c5cc(N)cc6ccc(F)c(C#C)c56)ncc34)C1)N2
Marked response: 0.98

Exam item: Look up and report log10 IC50, with KRAS^G12D/cRAF (Homo sapiens, UniProt P01116, G12D) as system, for C#Cc1c(F)ccc2cc(O)cc(-c3ncc4c(N5C[C@@H]6CC[C@](C7CC7)(C5)N6)nc(OC[C@@]56CCCN5CC(=C(F)F)C6)nc4c3F)c12
Marked response: 1.72

Exam item: Look up and report log10 IC50, with KRAS^G12D/cRAF (Homo sapiens, UniProt P01116, G12D) as system, for [2H]C([2H])([2H])[C@@]12CC[C@@H](CN(c3nc(OC[C@@]45CCCN4C/C(=C\F)C5)nc4c(F)c(-c5cc(N)cc6ccc(F)c(C#C)c56)ncc34)C1)N2
Marked response: 1.04

Exam item: Look up and report log10 IC50, with KRAS^G12D/cRAF (Homo sapiens, UniProt P01116, G12D) as system, for [2H]C([2H])([2H])OC[C@@]12CC[C@@H](CN(c3nc(OC[C@@]45CCCN4C/C(=C\F)C5)nc4c(F)c(-c5cccc6sc(N)c(C#N)c56)c(Cl)cc34)C1)N2
Marked response: 1.27

Exam item: Look up and report log10 IC50, with KRAS^G12D/cRAF (Homo sapiens, UniProt P01116, G12D) as system, for C#Cc1c(F)ccc2cc(O)cc(-c3ncc4c(N5C[C@@H]6CC[C@](C7CC7)(C5)N6)nc(OC[C@@]56CCCN5CC(=C)C6)nc4c3F)c12
Marked response: 1.40

Exam item: Look up and report log10 IC50, with KRAS^G12D/cRAF (Homo sapiens, UniProt P01116, G12D) as system, for [2H]C([2H])([2H])C([2H])([2H])[C@@]12CC[C@@H](CN(c3nc(OC[C@@]45CCCN4C/C(=C\F)C5)nc4c(F)c(-c5cccc6sc(N)c(C#N)c56)c(Cl)cc34)C1)N2
Marked response: 1.44

Exam item: Look up and report log10 IC50, with KRAS^G12D/cRAF (Homo sapiens, UniProt P01116, G12D) as system, for C#Cc1c(F)ccc2cc(O)cc(-c3ncc4c(N5C[C@@H]6CC[C@](C7CC7)(C5)N6)nc(OCC56CC(=C)CN5CC(=C)C6)nc4c3F)c12
Marked response: 2.01

* * *

Test: Pharmacokinetic experiment in mice (single PO or IV administration)
Settings: male, ICR, mouse, plasma, po, 10 mg/kg
I'd be grateful if you could share measured Cmax for these entries.
Field format: number, assumed ng/mL, no unit text.

Exam item: Give the reported value of Cmax for this record: [2H]C([2H])([2H])C([2H])([2H])[C@@]12CC[C@@H](CN(c3nc(OC[C@@]45CCCN4C/C(=C\F)C5)nc4c(F)c(-c5cc(N)cc6ccc(F)c(C#C)c56)ncc34)C1)N2
Marked response: 298

Exam item: Give the reported value of Cmax for this record: [2H]C([2H])([2H])OC[C@@]12CC[C@@H](CN(c3nc(OC[C@@]45CCCN4C/C(=C\F)C5)nc4c(F)c(-c5cc(O)cc6ccc(F)c(C#C)c56)ncc34)C1)N2
Marked response: 224

Exam item: Give the reported value of Cmax for this record: C#Cc1c(F)ccc2cc(O)cc(-c3ncc4c(N5C[C@H]6CC[C@@H](C5)N6)nc(OC[C@@]56CCCN5C/C(=C\F)C6)nc4c3F)c12 [Reference Compound 1, reference compound]
Marked response: 33.2
